Test system: rat chronic carcinogenicity bioassay, TD50
Experiment: DSSTox (CPDBAS) Carcinogenic Potency Database Summary Rat Bioassay Results
Conditions: TargetSites_Rat_BothSexes: liver; vascular system; stronger effect = lower value
Readout kind: Potency

Item C=C/C1=C/[C@H](C)[C@](C)(OC(C)=O)C(=O)OCC2=CC[N+]3(C)CC[C@@H](OC1=O)C23[O-] (stereo partly specified) ; assay system rat chronic carcinogenicity bioassay, TD50; Potency reported as 0.5 mg/kg/day

* * *

System: rat chronic carcinogenicity bioassay, TD50
Assay: DSSTox (CPDBAS) Carcinogenic Potency Database Summary Rat Bioassay Results
Conditions: TD50_Rat_Note: TD50 is harmonic mean of more than one positive test; TargetSites_Rat_BothSexes: liver; stronger effect = lower value
Readout kind: Potency

>  <Molecule>
CC(COc1ccc(C(C)(C)C)cc1)OS(=O)OCCCl (configuration not stated)

>  <Test system>
rat chronic carcinogenicity bioassay, TD50

>  <Readout kind>
Potency

>  <Recorded result>
96.7 mg/kg/day

$$$$

Bench note, rat chronic carcinogenicity bioassay, TD50: entry C=CCc1ccc2c(c1)OCO2 , its Potency = 441 mg/kg/day

* * *

System: rat chronic carcinogenicity bioassay, TD50
Test: DSSTox (CPDBAS) Carcinogenic Potency Database Summary Rat Bioassay Results
Details: TD50_Rat_Note: no positive results are statistically significant; stronger effect = lower value
Readout kind: Potency

>  <Given smiles>
Cc1cc(C)c(N)cc1C

>  <Potency>
98.5 mg/kg/day

$$$$

# Potency of CCN(CC)C(C)=O = 8.85 mg/kg/day

* * *

Tested on: rat chronic carcinogenicity bioassay, TD50
Assay: DSSTox (CPDBAS) Carcinogenic Potency Database Summary Rat Bioassay Results
Conditions: TD50_Rat_Note: no positive results are statistically significant; TargetSites_Rat_Female: mammary gland; stronger effect = lower value
Readout kind: Potency

Noted for CC(=O)Nc1ccc(S(=O)(=O)c2ccc(NC(C)=O)cc2)cc1 : its Potency reads 55.6 mg/kg/day

* * *

Tested on: rat chronic carcinogenicity bioassay, TD50
Assay: DSSTox (CPDBAS) Carcinogenic Potency Database Summary Rat Bioassay Results
Settings: TD50_Rat_Note: no positive results; TargetSites_Rat_Female: no positive results
The source made the active and inactive calls.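 How the source made its calls: active means at least one rat sex group has a carcinogenic potency value and tumor site recorded; inconclusive means only rat studies were judged inadequate by the national testing program; inactive means no potency or tumor site, with negative rat experiments.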
Readout kind: outcome

>  <Given smiles>
CN(N=O)c1ccncc1

>  <Test system>
rat chronic carcinogenicity bioassay, TD50

>  <Recorded result>
inactive

$$$$
>  <Given smiles>
O=CNNc1nc(-c2ccco2)cs1

>  <Test system>
rat chronic carcinogenicity bioassay, TD50

>  <Recorded result>
inactive

$$$$

* * *

Tested on: rat chronic carcinogenicity bioassay, TD50
Test: DSSTox (CPDBAS) Carcinogenic Potency Database Summary Rat Bioassay Results
Conditions: TD50_Rat_Note: TD50 is harmonic mean of more than one positive test; TargetSites_Rat_Female: adrenal gland; hematopoietic system; liver; mammary gland; thyroid gland; stronger effect = lower value
Readout kind: Potency

Reading of Potency for O=C1OC(O)C(C(Cl)Cl)=C1Cl (stereo unspecified) with rat chronic carcinogenicity bioassay, TD50: 0.583 mg/kg/day

* * *

Tested on: rat chronic carcinogenicity bioassay, TD50
Experiment: DSSTox (CPDBAS) Carcinogenic Potency Database Summary Rat Bioassay Results
Conditions: TD50_Rat_Note: TD50 is harmonic mean of more than one positive test; greater than ten-fold variation among TD50 values for positive res; TargetSites_Rat_Female: lung; stronger effect = lower value
Readout kind: Potency

Potency for [Cd+2].[Cl-].[Cl-] is 0.0136 mg/kg/day

Reference source: PubChem BioAssay AID1208
